# measurementProtocol: Inhibition of sodium channel site2 (unknown origin) by radioligand binding assay relative to control
# Parameters: species or system Homo sapiens
measuredProperty: IC50 (nM)
Express your answer in nM, writing the number without its unit.

Please report the recorded IC50 for N#Cc1cc(S(=O)(=O)Nc2ncns2)ccc1Oc1ccc(-c2cccc(C(F)(F)F)c2)cc1-c1ccnc(CNCCC2CCNCC2)c1 .
48

###

# measurementProtocol: Half-life in iv dosed mouse
# Type: ADME, organism-based
# testContext: in vivo
measuredProperty: half-life (min)
Express your answer in min, writing the number without its unit.

Please report the recorded half-life for N#Cc1cc(S(=O)(=O)Nc2ncns2)ccc1Oc1ccc(-c2cccc(C(F)(F)F)c2)cc1-c1ccnc(CNCCC2CCNCC2)c1 .
39.6

Recorded values, source ChEMBL document CHEMBL4177603.
